TARGET_UNDER_TEST: T1, Desmoglein 2 (DSG2) on cells (human, UniProt Q14126 50-1118)
T1 construct: whole, on cells; also called HeLa cells, which express DSG2; DSG2 on polarized T84 cells
T1 sequence (looked up): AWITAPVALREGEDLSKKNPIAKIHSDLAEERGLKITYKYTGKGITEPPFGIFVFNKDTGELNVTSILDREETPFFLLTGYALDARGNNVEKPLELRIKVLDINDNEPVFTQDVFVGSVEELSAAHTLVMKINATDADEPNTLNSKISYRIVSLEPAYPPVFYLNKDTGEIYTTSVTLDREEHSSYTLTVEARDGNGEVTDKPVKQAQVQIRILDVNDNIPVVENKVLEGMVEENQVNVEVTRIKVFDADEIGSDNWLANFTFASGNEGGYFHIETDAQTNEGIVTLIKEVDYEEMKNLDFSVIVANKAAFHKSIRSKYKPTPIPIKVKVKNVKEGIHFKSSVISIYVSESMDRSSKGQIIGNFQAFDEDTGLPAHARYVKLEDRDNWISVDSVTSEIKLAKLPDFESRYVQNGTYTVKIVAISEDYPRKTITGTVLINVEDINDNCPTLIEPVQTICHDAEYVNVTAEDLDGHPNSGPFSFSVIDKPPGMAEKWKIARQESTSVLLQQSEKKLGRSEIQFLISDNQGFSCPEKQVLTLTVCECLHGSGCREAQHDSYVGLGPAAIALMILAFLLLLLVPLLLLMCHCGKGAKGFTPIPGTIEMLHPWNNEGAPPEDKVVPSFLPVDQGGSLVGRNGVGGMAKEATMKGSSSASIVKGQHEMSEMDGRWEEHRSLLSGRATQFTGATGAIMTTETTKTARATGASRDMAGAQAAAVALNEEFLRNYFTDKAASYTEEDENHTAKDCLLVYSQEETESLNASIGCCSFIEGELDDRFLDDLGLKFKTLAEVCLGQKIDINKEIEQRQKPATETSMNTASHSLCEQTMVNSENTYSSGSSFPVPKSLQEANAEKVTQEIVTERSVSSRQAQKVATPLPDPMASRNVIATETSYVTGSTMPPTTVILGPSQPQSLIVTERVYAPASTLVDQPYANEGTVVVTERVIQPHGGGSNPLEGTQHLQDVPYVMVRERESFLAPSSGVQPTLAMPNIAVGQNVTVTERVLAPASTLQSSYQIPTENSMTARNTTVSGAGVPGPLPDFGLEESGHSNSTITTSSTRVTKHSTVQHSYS
ASSAY_PROTOCOL: competition: attachment of 3H-labelled Ad3 virus (competitor) to HeLa cells after pre-incubation with dimeric knob; scintillation counting
RESULT_TYPE: Inhibition of attachment in the presence of dimeric knob (JO-1 = 100%)

- dimeric Ad3 fiber knob mutant N186D (ligand, Self-dimerizing form (JO-1 format)) MKVSALKEKVSALKEKVSALKEKVSALKEKVSALKEGSGGGSGGGSGGGSNSIALKNNTLWTGPKPEANCIIEYGKQNPDSKLTLILVKNGGIVNGYVTLMGASDYVNTLFKDKNVSINVELYFDATGHILPDSSSLKTDLELKYKQTADFSARGFMPSTTAYPFVLPNAGTHNENYIFGQCYYKASDGALFPLEVTVMLNKRLPDSRTSYVMTFLWSLNAGLAPETTQATLITSPFTFSYIREDD: 56.5 % (JO-1 = 100%)

Requested field: Inhibition of attachment in the presence of dimeric knob (JO-1 = 100%). Item: dimeric Ad3 fiber knob mutant L296R (ligand, JO-1 format) MKVSALKEKVSALKEKVSALKEKVSALKEKVSALKEGSGGGSGGGSGGGSNSIALKNNTLWTGPKPEANCIIEYGKQNPDSKLTLILVKNGGIVNGYVTLMGASDYVNTLFKNKNVSINVELYFDATGHILPDSSSLKTDLELKYKQTADFSARGFMPSTTAYPFVLPNAGTHNENYIFGQCYYKASDGALFPLEVTVMLNKRLPDSRTSYVMTFLWSLNAGRAPETTQATLITSPFTFSYIREDD
73.7 % (JO-1 = 100%)

# Inhibition of attachment in the presence of dimeric knob (JO-1 = 100%) lookup, item dimeric Ad3 fiber knob mutant N186D, D261N (ligand, JO-1 format; Positions count on the full Ad3 fiber; also called combination of N186D and D261N) MKVSALKEKVSALKEKVSALKEKVSALKEKVSALKEGSGGGSGGGSGGGSNSIALKNNTLWTGPKPEANCIIEYGKQNPDSKLTLILVKNGGIVNGYVTLMGASDYVNTLFKDKNVSINVELYFDATGHILPDSSSLKTDLELKYKQTADFSARGFMPSTTAYPFVLPNAGTHNENYIFGQCYYKASNGALFPLEVTVMLNKRLPDSRTSYVMTFLWSLNAGLAPETTQATLITSPFTFSYIREDD
23.5 % (JO-1 = 100%)

Returns the measured Inhibition of attachment in the presence of dimeric knob (JO-1 = 100%) for the input binder. Input: dimeric Ad3 fiber knob mutant V189G (ligand, JO-1 format) MKVSALKEKVSALKEKVSALKEKVSALKEKVSALKEGSGGGSGGGSGGGSNSIALKNNTLWTGPKPEANCIIEYGKQNPDSKLTLILVKNGGIVNGYVTLMGASDYVNTLFKNKNGSINVELYFDATGHILPDSSSLKTDLELKYKQTADFSARGFMPSTTAYPFVLPNAGTHNENYIFGQCYYKASDGALFPLEVTVMLNKRLPDSRTSYVMTFLWSLNAGLAPETTQATLITSPFTFSYIREDD
81 % (JO-1 = 100%)
